These measurements were taken from PubChem BioAssay (NCI).

# System: KM12 colon
# run_description: NCI-60 one-dose screen, 48 h
# particulars: 10 µM unless noted
# Procedure: Growth inhibition of the KM12 human tumor cell line is measured as a screen for anti-cancer activity. Cells are grown in 96 well plates and exposed to the test compound for 48 hours. Compounds are tested at a single concentration, which is 10^-5 M for most compounds. The reported endpoint is percent growth (GI% or GIPRCNT), where numbers from 0 - 100% represent growth inhibition, and numbers from -100% - 0 represent cell death. For example, a value of 40 represents 60% growth inhibition. […]
This is part of a sample that, as a whole, favours compounds with a hit. Of some 83,000 tested, about 20% had one in any assay. Calls of active or inactive are those of the source. Rule for the calls: active = growth percent below 10; inactive = the rest.
Outcome codes: true = active, false = inactive

> print(dat)
                                    compound  label.value
 1  O=[N+]([O-])c1ccc2[nH]c(=S)n(/C=C(/c3ccc(Cl)cc3Cl)S(=O)(=O)Cc3ccc(Cl)cc3Cl)c2c1        false
 2                Cc1ccc([N+](=O)[O-])c(C)n1        false
 3                CCOC(=O)c1ccc(C(C)(C)C)cc1        false
 4  CC(=O)OCC1OC(n2cnc3c(=S)nc(N)[nH]c32)C(OC(C)=O)C1OC(C)=O (stereo unspecified)        false
 5  CC1CC(C)S(=O)(=O)C1 (stereo unspecified)        false
 6                              CCOC(C=O)OCC        false
 7  c1ccc2c(NCCCN3CCN(CCCNc4c5ccccc5nc5ccccc45)CC3)c3ccccc3nc2c1         true
 8                     COc1cc(N)c2ncccc2c1Cl        false
 9  C/C(=N\N=C(/C)c1cccc([N+](=O)[O-])c1)c1cccc([N+](=O)[O-])c1        false
10  OCC(O)COc1ccc(Cl)cc1Cl (stereo unspecified)        false
11                        Cc1c(Cl)cccc1N=C=S        false
12  O=C(NCCc1ccccc1)/C(=C\c1ccc(Cl)cc1Cl)NC(=O)c1ccccc1        false
13  CC(=O)OC(C)c1cccc(C#N)c1 (stereo unspecified)        false
14        O=C1C=C[C@H](O)[C@@]2(CO)O[C@@H]12        false
15                    CCNC(=O)Oc1ccc[nH]c1=O        false
16  CN(C)c1ccc(O)c2c1CC1CC3C(N(C)C)C(=O)C(C(N)=O)=C(O)C3(O)C(=O)C1=C2O (stereo unspecified)        false
17  CC(O)C(F)(F)C(F)(F)C(F)(F)F (stereo unspecified)        false
18            O=C(Oc1ccccc1Cl)c1ccc(Cl)cc1Cl        false
19        Nc1c(Br)cc(O)c2c1C(=O)c1ccccc1C2=O        false
20  CS(=O)CC(=N\O)/C(CS(C)=O)=N\O (stereo unspecified)        false
21  CC(C)NC(=O)OCc1c(COC(=O)NC(C)C)c(-c2ccc(Cl)cc2)n2c1CCC2        false
22                             Nc1ccc(F)cc1F        false
23          OC(CBr)CCBr (stereo unspecified)        false
24     O=C(NCc1ccccc1)c1cccc([N+](=O)[O-])c1        false
25                        Cc1ccc2nc(N)nnc2c1        false
26               O=C(O)CCCCCNC(=O)OCc1ccccc1        false

====

# Test system: A549/ATCC NSCLC
# run_description: NCI-60 one-dose screen, 48 h (100 = growth as untreated, 0 = no growth, -100 = all killed)
# particulars: 10 µM unless noted
Compounds without any hit were thinned out: in the full panel of roughly 83,000, 20% have a hit. Active and inactive are the calls of the source. The calls were made as follows: active = growth percent below 10; inactive = the rest.
Listing of recorded growth by entry.
readout_kind: growth

> print(dat)
                                    molecule             endpoint.value
 1                    Nc1nc(N)nc(N2CCCCC2)n1            104% (inactive)
 2    CC(c1ccccc1)N(C)C (stereo unspecified)            106% (inactive)
 3  CC(O)C(F)(F)C(F)(F)C(F)(F)F (stereo unspecified)            110% (inactive)
 4                       Cc1ccc(C)c2c1CCC2=O            114% (inactive)
 5                        C1C[S+]2CC[S+]1CC2           98.9% (inactive)
 6  CCOC(=O)c1ccc(Nc2sc(C(=O)c3ccc(Br)cc3)c(N)c2C#N)cc1           30.7% (inactive)
 7  O=C1C=C(c2ccccc2)C(O)(c2ccccc2)C1 (stereo unspecified)           93.4% (inactive)
 8      CCCCCC/C=C\CCCCCCCCCc1cc(O)cc(OC)c1O           16.8% (inactive)
 9  Cc1[nH]n(-c2ccccc2)c(=O)c1C=NC(=S)C(N)=S           93.6% (inactive)
10                 O=Cc1c(O)c2ccccc2[nH]c1=O           90.1% (inactive)
11           CCNC(=O)OCCc1c2ccccc2nc2ccccc12            101% (inactive)
12   C=CCNC(=S)N/C=C(/C(=O)c1ccccc1)c1ccccc1            103% (inactive)
13                   CCCCNC(=O)c1ccc(OCC)cc1           98.6% (inactive)
14    N#Cc1ccc(OC(=O)Nc2c(Cl)cc(Cl)cc2Cl)cc1           96.3% (inactive)
15     CN(C)c1ccc2nc3ccc(=[N+](C)C)cc-3oc2c1           30.7% (inactive)
16  CN(C)CCOC(=O)Nc1ccc(Cc2ccc(NC(=O)OCCN(C)C)cc2)cc1  75.8% [100 µM] (inactive)
17  C/C(=N\N=C(/C)c1cccc([N+](=O)[O-])c1)c1cccc([N+](=O)[O-])c1           79.3% (inactive)
18       O=C(c1ccccc1)c1ccc(-c2ccc(O)cc2)cc1           38.6% (inactive)
19                     CC(C)(CC(=O)O)CC(=O)O            101% (inactive)
20                       O=Cc1ccc(Cl)c(Cl)c1            102% (inactive)
21         O=C(N/N=C\c1ccc(Cl)cc1Cl)c1ccncc1             91% (inactive)
22               CCOC(=O)c1cc(Cl)c(O)c(Cl)c1            100% (inactive)
23  CN(C)c1ccc(O)c2c1CC1CC3C(N(C)C)C(=O)C(C(N)=O)=C(O)C3(O)C(=O)C1=C2O (stereo unspecified)           21.3% (inactive)
24  CC(C)(N)CO[C@H]1C[C@H]2CC[C@@]1(C)C2(C)C           96.8% (inactive)
25          O=C(Nc1cccc(Cl)c1)c1ccc(Cl)cc1Cl           81.1% (inactive)
26              O=C(OCc1ccccc1)n1nnc2ccccc21            102% (inactive)

====

# Tested on: TK-10 renal
# run_description: NCI-60 one-dose screen, 48 h (100 = growth as untreated, 0 = no growth, -100 = all killed)
# particulars: 10 µM unless noted
This is part of a sample that, as a whole, favours compounds with a hit. Of some 83,000 tested, about 20% had one in any assay.
readout_kind: growth (%)

> print(dat)
                                    molecule  readout.kind  endpoint.value
 1  CSCC[C@@H]1C(=O)N(C)[C@H](C(C)(C)C)N1C(=O)c1ccccc1        growth             106
 2   O=C1C=Cc2ccccc2/C1=C/c1[nH]c(=O)[nH]c1O        growth            65.2
 3  COC1OC(C(O)C(O)CO)C(O)C(O)C1O (stereo not drawn)        growth             107
 4      CC1CN(CCO)CC(C)O1 (stereo not drawn)        growth             106
 5              O=C(OCc1ccccc1)n1nnc2ccccc21        growth             107
 6  CC(=O)OCC1OC(n2cnc3c(=S)nc(N)[nH]c32)C(OC(C)=O)C1OC(C)=O (stereo not drawn)        growth            82.4
 7             CC(=O)/C(C)=N\OC(=O)Nc1ccccc1        growth            97.5
 8                       CC(C)N(CCCC#N)C(C)C        growth             104
 9                   Cc1ccc(S(N)(=O)=O)cc1Cl        growth             107
10                                NC(=O)OCCO        growth            98.8
11        Oc1ccc(N=Cc2ccc(OCc3ccccc3)cc2)cc1        growth            99.3
12                   CCCCNC(=O)c1ccc(OCC)cc1        growth             105
13                Cc1ccc([N+](=O)[O-])c(C)n1        growth             117
